Attribution: patent US20250289893A1

- targetOrTestSystem: T1, human CD1a protein (pool B) (human, UniProt P06126 18-295, limits assumed)
- T1 construct: Recombinant protein of the ELISA (coated) and the Biacore T200 titration; whole entry named; also called human CD1a pool B; full length CD1a
- T1 sequence (P06126 18-295 limits assumed): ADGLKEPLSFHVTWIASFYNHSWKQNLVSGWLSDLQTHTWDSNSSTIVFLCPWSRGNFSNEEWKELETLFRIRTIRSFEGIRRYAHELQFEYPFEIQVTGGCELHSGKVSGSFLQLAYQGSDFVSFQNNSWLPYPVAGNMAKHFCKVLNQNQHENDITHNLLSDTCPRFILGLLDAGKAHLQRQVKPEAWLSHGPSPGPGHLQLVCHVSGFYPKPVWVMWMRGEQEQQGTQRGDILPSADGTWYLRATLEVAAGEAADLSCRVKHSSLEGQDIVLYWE
- testDescription: ELISA, 0.0316 µg/ml antibody
measuredProperty: Optical Density (OD)
Return type: number; implicit unit OD.

Fill in the blank: the reported Optical Density (OD) of 116 (VR12117) (antibody, V domains shown, also called OX116) VH: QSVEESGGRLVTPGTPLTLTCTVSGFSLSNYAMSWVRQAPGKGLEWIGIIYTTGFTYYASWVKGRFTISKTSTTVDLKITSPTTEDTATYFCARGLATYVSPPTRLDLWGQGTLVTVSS VL: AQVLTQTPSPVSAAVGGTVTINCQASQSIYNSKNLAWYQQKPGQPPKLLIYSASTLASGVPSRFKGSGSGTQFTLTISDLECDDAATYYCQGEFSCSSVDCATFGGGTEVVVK is ____.
0.95
